Collected viability, T/C values appear next to each entry.
# Tested on: 276233-004-R-J1-PDC complex spheroid viability;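 further: spheroids exposed to drugs for seven days; 100% = DMSO vehicle control viability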
# Protocol Text: Anticancer human tumor 276233-004-R-J1-PDC patient-derived colon adenocarcinoma cell line growth inhibition [GQUAD]
# Condition Set: second compound 3.16 µM; first compound 0.00316 µM; hits give low values
Express it in %; write the number only.

molecule="Cc1[nH]c2ccccc2c1CCNCc1ccc(/C=C/C(=O)NO)cc1 + Cc1cnc(CNC(=O)c2c(=O)c3ccc(N4CCCN(C)CC4)nc3n3c2sc2ccccc23)cn1" experimental_target="276233-004-R-J1-PDC complex spheroid viability" reported_result=85.8

# input Suppose we examine the molecule Cc1[nH]c2ccccc2c1CCNCc1ccc(/C=C/C(=O)NO)cc1 + Cc1[nH]c2ccc(F)cc2c1-c1nc2c3cccnc3c3ncccc3c2[nH]1 ; what viability, T/C value has been reported?
# output 15.9

# input Subsequent entry: CCc1c2c(nc3ccc(O)cc13)-c1cc3c(c(=O)n1C2)COC(=O)[C@]3(O)CC + Cc1[nH]c2ccc(F)cc2c1-c1nc2c3cccnc3c3ncccc3c2[nH]1
# output 57.3
